Experiment: Cytotoxicity against LPS-treated mouse BV2 cells assessed as cell viability at 20 uM relative to control
Assay type: cell-based, BV-2
Settings: read-out: Activity
viability at 20 µM values for the compounds below.
The reply should contain only the number, in %.

Worked examples, 5 compounds total:
O=C(/C=C/c1ccc(O)cc1)C[C@H](O)CCc1ccc(O)cc1; 99.4
COc1ccc(/C=C/C=C/C(=O)CCc2ccc(O)cc2)cc1; 18.5
COc1cc(CC[C@@H](O)C[C@H](O)CCc2ccc(O)c(O)c2)ccc1O; 99.2
O=C(/C=C/C=C/c1ccc(O)c(O)c1)CCc1ccc(O)cc1; 104
COc1cc(CC[C@H]2C[C@@H](O)C[C@@H](c3ccc(O)c(OC)c3)O2)ccc1O; 109

*Q* Any idea what its viability at 20 µM is? The compound is `O=C(/C=C/C=C/c1ccc(O)c(O)c1)CCc1ccc(O)c(O)c1`
*A* 24.6

*Q* Same for `COc1cc(/C=C/C(=O)/C=C/c2ccc(O)cc2)ccc1O`
*A* 25.5

*Q* Same for `Oc1ccc(CC[C@H]2C[C@H](O)C[C@@H](c3ccc(O)cc3)O2)cc1`
*A* 95.6

*Q* Same for `COc1cc(/C=C/C=C/C(=O)CCc2ccc(O)cc2)ccc1O`
*A* 115

*Q* Same for `Oc1ccc(CC[C@H]2C[C@@H](O)C[C@@H](c3ccc(O)cc3)O2)cc1`
*A* 96.8

*Q* Same for `Oc1ccc(/C=C/[C@H]2C[C@H](O)C[C@@H](c3ccc(O)cc3)O2)cc1`
*A* 91.4

*Q* Same for `CNC(=N)NCCC[C@H](N)C(=O)O`
*A* 103

*Q* Same for `COc1cc(CC[C@H]2C[C@H](O)C[C@@H](c3ccc(O)c(OC)c3)O2)ccc1O`
*A* 116

----------
IC50 values for the molecules below.
System: BV-2
Assay: Antineuroinflammatory activity in mouse BV2 cells assessed as inhibition of LPS-induced nitric oxide production after 24 hrs by Griess assay
Format: functional, cell-based
Settings: BV-2, 24 h
The reply should contain only the number, in µM.

Worked examples, 8 molecules total:
O=C(/C=C/C=C/c1ccc(O)c(O)c1)CCc1ccc(O)cc1; 14.4
Oc1ccc(CC[C@H]2C[C@H](O)C[C@@H](c3ccc(O)cc3)O2)cc1; 38.1
COc1cc(/C=C/C(=O)/C=C/c2ccc(O)cc2)ccc1O; 5.99
COc1cc(CC[C@H]2C[C@@H](O)C[C@@H](c3ccc(O)c(OC)c3)O2)ccc1O; 95.1
COc1ccc(/C=C/C=C/C(=O)CCc2ccc(O)cc2)cc1; 8.44
COc1cc(CC[C@H]2C[C@H](O)C[C@@H](c3ccc(O)c(OC)c3)O2)ccc1O; 45.9
O=C(/C=C/C=C/c1ccc(O)c(O)c1)CCc1ccc(O)c(O)c1; 7.84
COc1cc(/C=C/C=C/C(=O)CCc2ccc(O)cc2)ccc1O; 13.4

*Q* Any idea what its IC50 is? The molecule is `COc1cc(CC[C@@H](O)C[C@H](O)CCc2ccc(O)c(O)c2)ccc1O`
*A* 89.7

*Q* Same for `O=C(/C=C/c1ccc(O)cc1)C[C@H](O)CCc1ccc(O)cc1`
*A* 57.1

*Q* Same for `Oc1ccc(CC[C@H]2C[C@@H](O)C[C@@H](c3ccc(O)cc3)O2)cc1`
*A* 39.7

*Q* Same for `Oc1ccc(/C=C/[C@H]2C[C@H](O)C[C@@H](c3ccc(O)cc3)O2)cc1`
*A* 18.6
